Collected max activation values appear next to each entry.
- target_under_test: Nuclear receptor subfamily 1 group I member 2 (Rattus norvegicus) (UniProt Q9R1A7)
- Sequence (Q9R1A7 whole entry, looked up): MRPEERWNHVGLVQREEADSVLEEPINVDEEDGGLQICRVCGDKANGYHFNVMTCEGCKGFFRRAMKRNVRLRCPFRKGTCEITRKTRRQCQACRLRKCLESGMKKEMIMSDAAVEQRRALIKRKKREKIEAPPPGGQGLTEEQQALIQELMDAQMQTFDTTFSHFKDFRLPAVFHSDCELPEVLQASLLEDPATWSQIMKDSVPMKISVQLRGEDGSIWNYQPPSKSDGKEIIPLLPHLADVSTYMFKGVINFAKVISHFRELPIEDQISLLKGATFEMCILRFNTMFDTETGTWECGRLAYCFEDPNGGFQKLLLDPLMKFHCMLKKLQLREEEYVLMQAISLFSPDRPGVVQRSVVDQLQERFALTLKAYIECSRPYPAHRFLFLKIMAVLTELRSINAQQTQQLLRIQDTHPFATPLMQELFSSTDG
- protocol_description: Rat pregnane X receptor (rPXR) activation by small molecules, qHTS assay (AID 1346983); note: % is set by controls: 0 for no effect and ±100 for the full control effect; nearly all actives have a fitted effect of over 20% in size
- test_parameters: rPXR luciferase reporter cells, One-Glo luminescence, 24 h; hits give high values
- Text: National Center for Advancing Translational Sciences [NCATS] NIH Chemical Genomics Center [NCGC] U.S. Environmental Protection Agency [EPA] National Institutes of Environmental Health Sciences [NIEHS] National Toxicology Program [NTP] Assay overview: The Pregnane X receptor (PXR), a ligand activated nuclear receptor plays a critical role in the regulation of genes involved in drug metabolism and transporters. […]
Inconclusive results are not listed.
measured_metric: max activation (%)

In [3]: df
Out[3]:
                         structure_notation  measured_metric  value
0  O=C(O)Cc1ccc(CCNS(=O)(=O)c2ccc(Cl)cc2)cc1   max activation    -10
1  COc1c(N2C[C@@H]3CCCN[C@@H]3C2)c(F)cc2c(=O)c(C(=O)O)cn(C3CC3)c12   max activation  -3.75
2               c1ccc([C@H]2CN3CCSC3=N2)cc1   max activation   -1.7
3                            CN1CC(=O)NC1=N   max activation  -5.88
4     Nc1ccc(S(=O)(=O)Nc2ccnn2-c2ccccc2)cc1   max activation   8.45
5  CCN1CCC[C@H]1CNC(=O)c1cc(S(N)(=O)=O)ccc1OC   max activation  -2.59

====

- protocol_description: qHTS assay for identifying genotoxic compounds that show differential cytotoxicity against isogenic chicken DT40 cell lines with known DNA damage response pathways - Rad54/Ku70 mutant cell line (AID 743015); note: nearly all actives have a fitted effect of over 60% in size
- test_parameters: DT40 Rad54/Ku70 mutant viability, CellTiter-Glo, 40 h; series mostly up to 66.8 µM
Records with an inconclusive call do not appear. Calls of active or inactive are those of the source. Calls come from the whole dose curve; as a rule, active = well fitted cell-killing curve with a large enough effect in the repeat runs; inconclusive = weak or mixed curves; inactive = no such curve, though single readings can be large or run the other way.
Outcomes: label 1 = active, label 0 = inactive

                                    molecule  group_label
 0                              OCCCC1CCCCC1      label 0
 1  COc1c(N2C[C@@H]3CCCN[C@@H]3C2)c(F)cc2c(=O)c(C(=O)O)cn(C3CC3)c12      label 0
 2            CC(=O)Nc1c(I)cc(I)c(C(=O)O)c1I      label 0
 3     CC(=O)OCC(CCn1cnc2cnc(N)nc21)COC(C)=O      label 0
 4       CC(C)(C)c1nnc(NS(=O)(=O)c2ccccc2)s1      label 0
 5                              CCc1nccnc1CC      label 0
 6       CCn1nc(C(=O)O)c(=O)c2cc3c(cc21)OCO3      label 0
 7                       CC(C)(O)C#CC(C)(C)O      label 0
 8                       CCOC(=O)c1ccc(C)cc1      label 0
 9                    CC(=O)CC(C)(C)C1CCCCC1      label 0
10  N[C@@H](C(=O)N[C@@H]1C(=O)N2C(C(=O)O)=C(Cl)CS[C@H]12)c1ccccc1      label 0
11  CCn1ccnc1CC1COc2ccccc2O1 (stereo unspecified)      label 0
12  CCN1CCC[C@H]1CNC(=O)c1cc(S(N)(=O)=O)ccc1OC      label 0
13   O=C1CC2CC1C1CCCC21 (stereo unspecified)      label 0
14                       Nc1cc(=O)[nH]c(N)n1      label 0
15     Nc1ccc(S(=O)(=O)Nc2ccnn2-c2ccccc2)cc1      label 0
16       CCN(CC)CCOCCOC(=O)C1(c2ccccc2)CCCC1      label 1
17                              C/C=C(\C)C#N      label 0
18  CCN(Cc1ccncc1)C(=O)C(CO)c1ccccc1 (stereo unspecified)      label 0
19  Cc1cccc(C)c1NC(=O)C(C)N (stereo unspecified)      label 0
20                 N[C@H](C(=O)O)c1ccc(O)cc1      label 0
21  NS(=O)(=O)c1cc(C(=O)O)cc(N2CCCC2)c1Oc1ccccc1      label 0
22  FC(F)OC(Cl)C(F)(F)F (stereo unspecified)      label 0
23                             NCCc1cnc[nH]1      label 0
24                         C=C(C)CS(=O)(=O)O      label 0
25  FC1(F)C(F)(F)C(F)(F)C2(F)C(F)(F)C(F)(F)C(F)(F)C(F)(F)C2(F)C1(F)F (stereo unspecified)      label 1
26  COc1ccc(CCN(C)CCCC(C#N)(c2cc(OC)c(OC)c(OC)c2)C(C)C)cc1OC (stereo unspecified)      label 1
27    Cc1nc2c([nH]1)c(=O)n(C)c(=O)n2Cc1ccco1      label 0
28           O=c1n(CCO)c(=O)n(CCO)c(=O)n1CCO      label 0
29  O=C(O)Cc1ccc(CCNS(=O)(=O)c2ccc(Cl)cc2)cc1      label 0
30  CC(C)=CCCC(C)CC(=O)O (stereo unspecified)      label 0

====

- protocol_description: qHTS assay to identify small molecule agonists of H2AX (AID 1224845); note: % is set by controls: 0 for no effect and ±100 for the full control effect
- test_parameters: CHO-K1 phospho-H2AX Ser139 HTRF, 3 h; series mostly up to 70.9 µM
Records with an inconclusive call do not appear. The source made the active and inactive calls. The call rests on the fitted dose curve; in most records, active means well fitted activation curve with a large enough effect in the signal ratio in the repeat runs (not every such curve was filed as active); inconclusive means weak or mixed curves; inactive means flat fitted curve, though single readings scatter; the % refers to the signal ratio.
measured_metric: activation (H2AX phosphorylation)

>>> print(df.to_string())
                                   compound                    measured_metric     value
0          O=C(O)COc1nn(Cc2ccccc2)c2ccccc12  activation (H2AX phosphorylation)  inactive
1  Cc1cccc(C)c1NC(=O)C(C)N (stereo not drawn)  activation (H2AX phosphorylation)  inactive
2     O=C1CC2CC1C1CCCC21 (stereo not drawn)  activation (H2AX phosphorylation)  inactive

====

- protocol_description: A CellTox Green Cytotoxicity Assay to monitor cytotoxicity in HEK293 cells - 0 hour (AID 1224869); note: % is set by controls: 0 for no effect and ±100 for the full control effect; nearly all actives have a fitted effect of over 50% in size
- test_parameters: CellTox Green fluorescence; series mostly up to 76.8 µM
Calls of active or inactive are those of the source. The call rests on the fitted dose curve; in most records, active means well fitted activation curve with a large enough effect in the repeat runs; inconclusive means weak or mixed curves; inactive means flat fitted curve, though single readings scatter.
measured_metric: cytotoxicity

In [3]: df
Out[3]:
                                    compound  measured_metric                           value
 0       CCN(CC)CCOCCOC(=O)C1(c2ccccc2)CCCC1     cytotoxicity                        inactive
 1     N=C(N)c1ccc(OCCCOc2ccc(C(=N)N)cc2)cc1     cytotoxicity                        inactive
 2       CCn1nc(C(=O)O)c(=O)c2cc3c(cc21)OCO3     cytotoxicity                        inactive
 3              C[C@](N)(Cc1ccc(O)cc1)C(=O)O     cytotoxicity   5.11% [at 6.97 µM] (inactive)
 4                         NCCCNCCSP(=O)(O)O     cytotoxicity  -8.49% [at 6.97 µM] (inactive)
 5                         NC(=O)c1ccc(N)cc1     cytotoxicity                        inactive
 6    Cc1nc2c([nH]1)c(=O)n(C)c(=O)n2Cc1ccco1     cytotoxicity                        inactive
 7                  O=[N+]([O-])c1ccc(F)cc1F     cytotoxicity                        inactive
 8  COC(=O)C1=C(C)NC(C)=C(C(=O)OC)C1c1ccccc1[N+](=O)[O-]     cytotoxicity                        inactive
 9  CC(C)NCC(O)c1ccc(NS(C)(=O)=O)cc1 (stereo unspecified)     cytotoxicity                        inactive
10          O=C(O)COc1nn(Cc2ccccc2)c2ccccc12     cytotoxicity                        inactive

====

- protocol_description: Caspase-3/7 induction in HepG2 cells by small molecules, qHTS cell viability counter screen (AID 1346981); note: % is set by controls: 0 for no effect and ±100 for the full control effect; nearly all actives have a fitted effect of over 30% in size
- test_parameters: CellTiter-Fluor fluorescence, 17 h; series mostly up to 92.4 µM
Results filed as inconclusive are left out. Active and inactive are the calls of the source. Calls come from the whole dose curve; as a rule, active = well fitted cell-killing curve with a large enough effect in the repeat runs; inconclusive = weak or mixed curves, or effect the other way; inactive = flat fitted curve, though single readings scatter.
measured_metric: activity change, negative = cytotoxicity

>>> print(df.to_string())
                         structure_notation                           measured_metric                          value
0       O=C1NC(=O)[C@@]2(CCOc3ccc(F)cc32)N1  activity change, negative = cytotoxicity                       inactive
1         CCOC(=O)Nc1ccc(NCc2ccc(F)cc2)nc1N  activity change, negative = cytotoxicity                       inactive
2  COc1nc(N)nc2c1ncn2[C@@H]1O[C@H](CO)[C@@H](O)[C@@H]1O  activity change, negative = cytotoxicity                       inactive
3              C[C@](N)(Cc1ccc(O)cc1)C(=O)O  activity change, negative = cytotoxicity  -1.6% [at 8.39 µM] (inactive)
4  CCCC(=O)O[C@]1(C(=O)CO)CC[C@H]2[C@@H]3CCC4=CC(=O)CC[C@]4(C)[C@H]3[C@@H](O)C[C@@]21C  activity change, negative = cytotoxicity                       inactive
5          Nc1nc2c(ncn2COC(CO)CO)c(=O)[nH]1  activity change, negative = cytotoxicity                       inactive
6                 N[C@H](C(=O)O)c1ccc(O)cc1  activity change, negative = cytotoxicity   0.561% [at 19 µM] (inactive)
7                         CN(C)CCCNCCCN(C)C  activity change, negative = cytotoxicity                       inactive
8  COc1c(N2C[C@@H]3CCCN[C@@H]3C2)c(F)cc2c(=O)c(C(=O)O)cn(C3CC3)c12  activity change, negative = cytotoxicity                       inactive
9                           CCCCOCCOCCOCCCC  activity change, negative = cytotoxicity                       inactive
